target: recombinant human DHFR (Homo sapiens, UniProt P00374); construct: purchased; experiment: Dihydrofolate reductase (DHFR) inhibition assay; type: biochemical; conditions: assay kit
QUANTITY: IC50 (µM)

Here's what some known entries look like.
COc1cc(C(=O)Nc2cc(N)ccc2F)cc(OC)c1OC :: 10.1
COc1cc(/C=C/C(=O)Nc2cnc(N)nc2)cc(OC)c1OC :: 26

1 = COc1cc(/C=C/C(=O)Nc2ccc(N)cc2)cc(OC)c1OC
2 = COc1cc(C(=O)Nc2ccc(N)c(Cl)c2)cc(OC)c1OC
3 = COc1cc(/C=C/C(=O)Nc2ccc(N)nc2)cc(OC)c1OC
Prompt: Thanks in advance: please rank these 3 entries by IC50, highest to lowest. // rank by listing labels in the order requested
Response: 3, 2, 1
(3: 12 µM, 2: 5.02 µM, 1: 0.89 µM)

a = COc1cc(/C=C/C(=O)Nc2ccc(Cl)c(N)c2)cc(OC)c1OC
b = COc1cc(OC)cc(C(=O)Nc2ccc(N)nc2)c1
Prompt: Of the two listed items, which has the higher IC50? First: a Second: b To answer, give the label that identifies your chosen option.
Response: b
(b: 3.02 µM, a: 0.88 µM)

====

system: poly(dG-dC)2; assay: Ethidium displacement assay, apparent binding constant, poly(dG-dC)2; details: apparent association constant, ± 0.2 × 10^5 M^−1
QUANTITY: Kapp poly (dG-dC)2 (M⁻¹)

COc1cc(/C=C/C(=O)Nc2ccc(N)cc2)cc(OC)c1OC [Compound 13] :: 340000
COc1cc(/C=C/C(=O)Nc2ccc(F)c(N)c2)cc(OC)c1OC [Compound 17] :: 250000
COc1cc(/C=C/C(=O)Nc2ccc(Cl)c(N)c2)cc(OC)c1OC [Compound 16] :: 380000
COc1cc(C(=O)Nc2ccc(F)c(N)c2)cc(OC)c1OC [Compound 2] :: 300000
COc1ccc(C(=O)Nc2ccc(N)nc2)cc1OC [Compound 8] :: 350000

====

Target: recombinant human DHFR (Homo sapiens)
Construct: purchased
Sequence (P00374 1-187): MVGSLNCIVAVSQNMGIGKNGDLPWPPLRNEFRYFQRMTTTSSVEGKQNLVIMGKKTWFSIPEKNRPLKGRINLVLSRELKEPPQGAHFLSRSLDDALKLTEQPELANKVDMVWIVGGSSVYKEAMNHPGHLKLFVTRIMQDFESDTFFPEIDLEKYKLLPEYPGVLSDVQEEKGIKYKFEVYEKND
Experiment: Dihydrofolate reductase (DHFR) inhibition assay
Format: biochemical
Conditions: assay kit
QUANTITY: IC50 (nM)
Write the answer as a number in nM, unit excluded.

COc1ccc(C(=O)Nc2ccc(N)nc2)cc1OC :: 10600
COc1cc(C(=O)Nc2ccc(N)nc2)cc(OC)c1OC :: 990

Read the next record carefully.
Prompt: Fill blank: measured IC50 of the compound `COc1cc(C(=O)Nc2ccc(F)c(N)c2)cc(OC)c1OC` is ____.
Response: 1110
